# test_name: qHTS assay for MDR1-selective chemotherapeutics: Primary screen using the drug-selected MDR subline cells KB-V1; further: nearly all actives have a fitted effect of over 60% in size
# cond: KB-V1 MDR cells viability, CellTiter-Glo, 72 h; series mostly up to 46.1 µM
The campaign covered roughly 400,000 compounds. About 13,000 (3.2%) were called active. About 18% were inconclusive and are not listed. The call rests on the fitted dose curve; in most records, active means well fitted cell-killing curve with a large enough effect; inconclusive means small, poorly fitted or top-dose-only effect, or effect the other way; inactive means flat fitted curve, though single readings scatter. The list comes from a sample in which actives are over-represented; it also holds close analogues and randomly drawn compounds.
Labels: active, inactive

# compound, discrete_label
data = [
    ("CCOC(=O)c1sc(NC(=O)C(CC)Sc2nccn2C)nc1C (stereo not given)", "inactive"),
    ("O=S1(=O)CC(N2CCN(CCO)CC2)CN1Cc1cn(Cc2ccc(Cl)cc2)nn1 (stereo not given)", "inactive"),
    ("CCNC(=O)C1(C)CCCN(Cc2noc(-c3ccccc3OC)n2)C1 (stereo not given)", "inactive"),
    ("C=CCn1c(CCc2ccc(OC(C)C)cc2)n[nH]c1=S", "inactive"),
    ("C=CCn1c2ccccc2c2nnc(SC(CC)C(=O)Nc3nc(C)c(C(=O)OCC)s3)nc21 (stereo not given)", "active"),
    ("CC(C)Oc1ccc(CCc2nnc(SCC(=O)O)n2-c2ccccc2)cc1", "inactive"),
    ("O=C1NC[C@H](Cc2ccc(O)cc2)N(C[C@@H]2CCCN2C[C@H](Cc2ccccc2)N2C[C@H](Cc3ccccc3)N(CC3CCCCC3)C(=O)C2=O)C1=O", "inactive"),
    ("CCc1ccccc1OCC(=O)Nc1nnc(C2CC2)s1", "inactive"),
    ("CC(C)Oc1ccc(CCc2n[nH]c(=S)n2Cc2ccccc2)cc1", "active"),
    ("C=CCn1nc(C(=O)OCC)cc1-c1sc(NC(=O)c2ccccc2)nc1C", "inactive"),
]

====

# test_name: qHTS assay for MDR1-selective chemotherapeutics: Primary screen using the drug-selected MDR subline cells KB-V1; further: nearly all actives have a fitted effect of over 60% in size
# cond: KB-V1 MDR cells viability, CellTiter-Glo, 72 h; series mostly up to 46.1 µM
# Source text: A prime difficulty in effectively treating cancer is the development of cellular resistance to multiple structurally unrelated anticancer drugs, a phenomenon known as multidrug resistance (MDR). […] Numerous strategies to overcome P-gp-mediated MDR have been explored, including the design of drugs that evade recognition and efflux, and development of inhibitors to block efflux and restore drug accumulation. […]
About 13,000 (3.2%) of roughly 400,000 compounds were called active. About 18% were inconclusive and are not listed. Calls follow the shape of the dose curve; as a rule, active = well fitted cell-killing curve with a large enough effect; inconclusive = small, poorly fitted or top-dose-only effect, or effect the other way; inactive = flat fitted curve, though single readings scatter. What follows is part of a selection rich in actives, with near analogues and random picks from the rest.
Outcomes: y for active, n for inactive

# compound, discrete_label
data = [
    ("COC(=O)Nc1nc2ccc(Sc3ccccc3)cc2[nH]1", "y"),
    ("COc1cc2c(cc1OC)CN(C(=O)c1cc(=O)c3ccccc3o1)CC2", "y"),
    ("CC(C)c1nc2ccc(C(=O)O)cc2[nH]1", "n"),
    ("COc1ccccc1CNC(=O)c1cc(=O)c2ccccc2o1", "n"),
]

====

# test_name: qHTS assay for MDR1-selective chemotherapeutics: Primary screen using the drug-selected MDR subline cells KB-V1; further: nearly all actives have a fitted effect of over 60% in size
# cond: KB-V1 MDR cells viability, CellTiter-Glo, 72 h; series mostly up to 46.1 µM
The whole screen tested about 400,000 compounds, of which about 13,000 (3.2%) were called active. Not shown: some 18% with an inconclusive outcome. Calls come from the whole dose curve; as a rule, active = well fitted cell-killing curve with a large enough effect; inconclusive = small, poorly fitted or top-dose-only effect, or effect the other way; inactive = flat fitted curve, though single readings scatter. For the sample, actives were picked, then their nearest neighbours and some compounds at random.
Possible outcomes: yes = active, no = inactive

# compound, discrete_label
measured = [
    ("CNC(=O)c1ccc(-c2nc(CN3CCc4ccccc43)c(C)o2)cc1", "no"),
    ("COc1ccc(C(=O)c2oc3ccc(Br)cc3c2NC(C)=O)cc1", "no"),
    ("CCOC(=O)C1CCCN(C(=O)c2ccc(N(C)C)cc2)CC1 (stereo unspecified)", "no"),
    ("CC(=O)c1ccccc1NC(=O)COC(=O)C1COc2ccccc2O1 (stereo unspecified)", "no"),
    ("O[C@H]1CN(Cc2cccs2)[C@@H](c2ccc(Cl)cc2)C[C@@H]1n1cc(C2CC2)nn1", "no"),
    ("O=C(CCc1nc(CN2CCN(S(=O)(=O)c3ccc(F)cc3)CC2)no1)N1CCCCC1", "no"),
    ("COc1ccc(C(=O)Nc2onc3c2CCCC3)cc1", "no"),
    ("COc1ccc(S(=O)(=O)Nc2ccc3oc(C)c(C(C)=O)c3c2)cc1", "yes"),
    ("COc1cc(NS(=O)(=O)c2ccc(NC(C)=O)cc2)cc(OC)c1", "no"),
    ("COc1ccc(CSc2nnnn2-c2ccc(C(=O)O)cc2)cc1", "no"),
    ("O=C(OC12CC3CC(CC(C3)C1)C2)c1ccc(NCc2cc(O)ccc2O)cc1", "yes"),
    ("CC1CCCCN1Cc1c(O)ccc2c(=O)c(-c3cccc(Cl)c3)c(C(F)(F)F)oc12 (stereo unspecified)", "no"),
    ("OC[C@@H]1CN(Cc2ccc(Cl)cc2)C[C@H](n2cnc3c(NCc4ccncc4)ncnc32)O1", "no"),
    ("CCCNC(=O)C1(C)CCN(Cc2csc(-c3ccc(Cl)cc3)n2)C1 (stereo unspecified)", "no"),
    ("COc1ccc(NC(=O)CSc2nnnn2-c2cccc(OC)c2)cc1", "no"),
    ("CC(=O)Nc1cccc(-c2csc(Nc3cccc(C)n3)n2)c1", "yes"),
]

====

# test_name: qHTS assay for MDR1-selective chemotherapeutics: Primary screen using the drug-selected MDR subline cells KB-V1; further: nearly all actives have a fitted effect of over 60% in size
# cond: KB-V1 MDR cells viability, CellTiter-Glo, 72 h; series mostly up to 46.1 µM
Screen size: about 400,000 compounds; about 13,000 (3.2%) were called active. About 18% were inconclusive and are not listed. The call rests on the fitted dose curve; in most records, active means well fitted cell-killing curve with a large enough effect; inconclusive means small, poorly fitted or top-dose-only effect, or effect the other way; inactive means flat fitted curve, though single readings scatter. Many of the other results were omitted from the sample, so actives are more common in it than they were.
Possible outcomes: active, inactive

# compound, discrete_label
measured = [
    ("COc1cccc(NC(=O)CN(C)C(=O)/C=C/c2cn(-c3ccccc3)nc2-c2cccs2)c1", "inactive"),
    ("Cc1csc[n+]1CCC1CCCCC1", "inactive"),
    ("CNc1cncc(-c2ccc(NS(C)(=O)=O)cc2)n1", "active"),
    ("CCOC(=O)C1CCCN(C(=O)c2cc(-c3cccs3)oc2C)CC1 (centres undefined)", "inactive"),
    ("COc1ccc(NC(=O)COC(=O)C2COc3ccccc3O2)cc1 (centres undefined)", "inactive"),
    ("CCNC(=O)C1(C)CCCN(C(=O)c2ccc3ccccc3n2)C1 (centres undefined)", "inactive"),
    ("CN(CC(=O)Nc1cccc(F)c1)CC(=O)Nc1cccc([N+](=O)[O-])c1", "active"),
    ("C=C1C(=O)[C@]23C[C@H]1CCC2[C@@]1(C)C(C[C@@H]3O)[C@](C)(C(=O)O)CC[C@@H]1O (some centres undefined)", "inactive"),
    ("CN(c1cccc(NC(=O)Nc2ccc(Cl)cc2)c1)S(C)(=O)=O", "inactive"),
    ("CCn1c(SCC(=O)Nc2ccccc2F)nc2c(c1=O)SC(C)C2 (centres undefined)", "inactive"),
    ("COCCNC(=O)C1CCCN(Cc2ccccc2Cl)CC1 (centres undefined)", "inactive"),
    ("COC(=O)c1ccccc1NC(=O)c1cnn(-c2ccc(F)cc2)c1-n1cccc1", "inactive"),
    ("CC1(C)N=C(SCc2ccccc2Cl)c2ccccc2N1", "inactive"),
    ("CN(Cc1ccccc1)C(=O)c1cn(C)c2ccc(S(=O)(=O)N3CCCCC3)cc2c1=O", "inactive"),
    ("COc1cccc(NC(=O)CN(C)C(=O)Cc2ccc(Cl)cc2Cl)c1", "inactive"),
    ("O=C(Nc1ccc(S(=O)(=O)Nc2ncccn2)cc1)c1cncc(Br)c1", "inactive"),
    ("CCOC(=O)C1CCN(C(=O)c2oc3ccc(S(=O)(=O)N4CCCCCC4)cc3c2C)CC1", "inactive"),
    ("CS(=O)(=O)Nc1ccc(C2=NN(S(C)(=O)=O)C(c3cccs3)C2)cc1 (centres undefined)", "inactive"),
    ("O=C(c1cnn(-c2ccc(F)cc2)c1-n1cccc1)N1CCN(c2ccc(F)cc2)CC1", "active"),
]

====

# test_name: qHTS assay for MDR1-selective chemotherapeutics: Primary screen using the drug-selected MDR subline cells KB-V1; further: nearly all actives have a fitted effect of over 60% in size
# cond: KB-V1 MDR cells viability, CellTiter-Glo, 72 h; series mostly up to 46.1 µM
Among all 400,000 compounds or so, about 13,000 (3.2%) were called active. Another 18% or so got no clear call; they are omitted. For the sample, actives were picked, then their nearest neighbours and some compounds at random.

# compound, outcome
measured = [
    ("CCCNC(=O)C1(C)CCCN(Cc2c(C)nn(-c3ccccc3)c2C)C1 (stereo not drawn)", "inactive"),
    ("Cc1ccc(-c2cnc(C(O)c3cc(Cl)cc(Cl)c3)[nH]2)cc1 (stereo not drawn)", "inactive"),
    ("CN1C(=O)C(CC(N)=O)N(NC(=O)c2ccc(Cl)cc2)C1=S (stereo not drawn)", "inactive"),
]
